Target: UniProt Q9Y5N1
Sequence (Q9Y5N1 whole entry): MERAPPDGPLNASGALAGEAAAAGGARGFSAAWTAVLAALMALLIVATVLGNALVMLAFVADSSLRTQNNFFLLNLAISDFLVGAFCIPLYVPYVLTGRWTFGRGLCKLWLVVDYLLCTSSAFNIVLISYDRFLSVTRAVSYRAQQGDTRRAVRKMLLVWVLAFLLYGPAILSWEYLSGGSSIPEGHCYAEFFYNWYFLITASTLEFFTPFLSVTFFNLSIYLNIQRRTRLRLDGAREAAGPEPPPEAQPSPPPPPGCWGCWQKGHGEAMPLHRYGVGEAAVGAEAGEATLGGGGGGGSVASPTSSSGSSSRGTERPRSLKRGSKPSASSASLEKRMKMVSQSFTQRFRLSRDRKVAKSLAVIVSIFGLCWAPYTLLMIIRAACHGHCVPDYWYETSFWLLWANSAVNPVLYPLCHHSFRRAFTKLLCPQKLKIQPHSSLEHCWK
Experiment: Agonist activity at human histamine H3 receptor expressed in Sf9 cells coexpressing Gialpha-2-Gbeta-1-gamma-2 and RGS4 proteins protein by steady-state GTPase assay
Format: functional
outcome_measure: EC50 (nM)
// return numeric value only (unit: nM, not printed)

Which EC50 is listed for N#CNC(N)=NCCCCc1cnc[nH]1 ?
251

###

pKb values for the compounds below.
Molecular target: Histamine H4 receptor (Homo sapiens, UniProt Q9H3N8)
Sequence (Q9H3N8 whole entry): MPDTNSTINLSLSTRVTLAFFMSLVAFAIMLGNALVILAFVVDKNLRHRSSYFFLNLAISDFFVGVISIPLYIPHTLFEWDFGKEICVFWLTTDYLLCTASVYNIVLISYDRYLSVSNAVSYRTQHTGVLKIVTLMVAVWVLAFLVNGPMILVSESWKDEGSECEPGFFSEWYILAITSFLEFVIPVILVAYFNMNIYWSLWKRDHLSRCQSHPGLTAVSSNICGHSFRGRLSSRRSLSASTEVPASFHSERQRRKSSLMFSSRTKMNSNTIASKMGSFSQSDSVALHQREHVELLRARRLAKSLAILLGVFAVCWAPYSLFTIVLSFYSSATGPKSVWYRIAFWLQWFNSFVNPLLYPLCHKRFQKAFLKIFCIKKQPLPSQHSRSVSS
Assay: Antagonist activity at human histamine H4 receptor expressed in Sf9 cells coexpressing RGS19 protein by steady-state GTPase assay
Format: functional
Give only the figure.

# count of solved cases: 3
| given_smiles | outcome_measure | test_value |
| --- | --- | --- |
| Cc1ccc(S(=O)(=O)NC(=N)NCCCc2c[nH]cn2)cc1 | pKb | 5.85 |
| N=C(NCCCc1c[nH]cn1)NS(=O)(=O)CCc1ccccc1 | pKb | 5.85 |
| NC(=O)/N=C(/NCCCc1ccccc1)NCCc1c[nH]cn1 | pKb | 5.89 |

Which pKb is listed for N#C/N=C(/NCCCc1c[nH]cn1)NCCCC1CCCCC1 ?
5.82
